// provenance: ChEMBL document CHEMBL3988442

# Percent Effect listing for each entry below
Tested on: Wolbachia pipientis
assay.text: Anti-Wolbachia Cell-Based Screen
Type: functional
Design: scale not given: in the data most compounds retested in dose-response had high values
measurement.conditions: 5 µM
Among all 48,000 compounds or so, about 13,000 (27%) showed an effect of 50% or more. The list shows a part of the results.
readout.name: Percent Effect (%)

* Cl.O=C(O)CC1CN(Cc2ccccc2)CCO1 (centres undefined) | -7.682
* Cn1ccnc1C(=O)NC[C@@H]1OC[C@H]2CN(CC3CC3)CC[C@H]21.O=C(O)C(F)(F)F | -43.28
* COc1ccc(CN2CCOC[C@H](OCC(=O)N(C)C)C2)cc1 | -7.108
* Cn1ccnc1C(=O)NCc1cnc2n1CCN(CC1CC1)CC2.O=C(O)C(F)(F)F.O=C(O)C(F)(F)F | 88.03
